# System: EB-3 (Burkitt's Lymphoma)
# assay-name: combination Emax (second highest fraction inhibited in the dose matrix, 72 h); higher = more inhibition; extreme values may be limits of the assay
# thresholds on combination Emax define classes: low = under 0.5, moderate = from 0.5 up to 0.8, high = 0.8 and over

* CC1(C)CCC(CN2CCN(c3ccc(C(=O)NS(=O)(=O)c4ccc(NCC5CCOCC5)c([N+](=O)[O-])c4)c(Oc4cnc5[nH]ccc5c4)c3)CC2)=C(c2ccc(Cl)cc2)C1 [Venetoclax] + CN(C)CCCOc1ccc(-c2ccc3ncc4c(c3c2)n(C2CCOCC2)c(=O)n4C)cn1 [AZD0156] (first compound max 1 µM, 7x7, partner max 1 µM) | low

Dear colleague, I would appreciate it if you could identify the bin for Cc1c2c(nn1C)CSCc1cc(n(C)n1)CSc1cc(c3ccccc3c1)OCCCc1c(C(=O)O)n(C)c3c-2c(Cl)ccc13 [AZD5991] + CC(=O)O[C@H]1C(=O)[C@@]2(C)[C@H]([C@H](OC(=O)c3ccccc3)[C@]3(O)C[C@H](OC(=O)[C@H](O)[C@@H](NC(=O)c4ccccc4)c4ccccc4)C(C)=C1C3(C)C)[C@]1(OC(C)=O)CO[C@@H]1C[C@@H]2O [Paclitaxel] (first compound max 1 µM, 7x7, partner max 3 µM) and reply at your convenience.
moderate

Dear colleague, I would appreciate it if you could identify the bin for C=CCn1c(=O)c2cnc(Nc3ccc(N4CCN(C)CC4)cc3)nc2n1-c1cccc(C(C)(C)O)n1 [AZD1775] + C1CN(CCC1(C(=O)N[C@@H](CCO)C2=CC=C(C=C2)Cl)N)C3=NC=NC4=C3C=CN4 [Capivasertib] (first compound max 3 µM, partner max 3 µM) and reply at your convenience.
high

Dear colleague, I would appreciate it if you could identify the bin for Cc1c2c(nn1C)CSCc1cc(n(C)n1)CSc1cc(c3ccccc3c1)OCCCc1c(C(=O)O)n(C)c3c-2c(Cl)ccc13 [AZD5991] + C[C@@H](Nc1cc(F)cc(F)c1)c1cc(C(=O)N(C)C)cc2c(=O)cc(N3CCOCC3)oc12 [AZD8186] (first compound max 1 µM, 7x7, partner max 3 µM) and reply at your convenience.
low

Dear colleague, I would appreciate it if you could identify the bin for Cc1c2c(nn1C)CSCc1cc(n(C)n1)CSc1cc(c3ccccc3c1)OCCCc1c(C(=O)O)n(C)c3c-2c(Cl)ccc13 [AZD5991] + C=CCn1c(=O)c2cnc(Nc3ccc(N4CCN(C)CC4)cc3)nc2n1-c1cccc(C(C)(C)O)n1 [AZD1775] (first compound max 1 µM, partner max 1 µM) and reply at your convenience.
moderate
